For each record, write down the corresponding SPOT peptide array binding signal intensity.
measured-target: SpLsb4
method-notes: SPOT peptide array binding signal intensity (averaged, normalized) (arbitrary units (background-subtracted, floor 0; scale differs between SH3 domains)); higher = stronger binding of the SH3 domain to the peptide
The response must contain the number and no unit.

[in] Entry under review: AAHKTKPSIPPKKVE . Reported SPOT peptide array binding signal intensity?
[out] 4

[in] # input binder: RRRIAYPFYPFKKLG ; wanted: its SPOT peptide array binding signal intensity
[out] 47
